- Test system: OVCAR-4 ovarian
- experimental-protocol: NCI-60 one-dose screen, 48 h
- experimental-parameters: 10 µM unless noted
The panel holds about 83,000 compounds, 20% with a hit somewhere; the sample as a whole holds those more often. Active and inactive are the calls of the source. The calls were made as follows: active = growth percent below 10; inactive = the rest.
In this exercise, the only acceptable responses are active, inactive

Some solved entries appear below for comparison.
Cc1[nH]nc2ccc3nc(-c4cn[nH]c4C(F)(F)F)c4c(c3c12)CCCC4 : inactive
NNc1ncnc2sc3c(c12)CCN(Cc1ccccc1)C3 : inactive
COc1ccc(-c2nc3ccc(-c4nnc(SCc5ccccc5)o4)cc3[nH]2)cc1OC : active
O=S(=O)(c1nc(-c2ccc(Br)cc2)oc1-c1ccc(Cl)cc1)N1CCCC(O)C1 (stereo not given) : inactive
COC(=O)c1cccc(Oc2ccc(NC(=O)Nc3cc(C(F)(F)F)ccc3F)cc2)c1 : inactive
CN1CCN(C(=O)Oc2cc3c(c4ccccc24)[C@H](CCl)CN3C(=O)c2cc3cc(OCCCN4CCC4)ccc3[nH]2)[C@H]2CSSC[C@H]21 : active
O=C(N/N=C/c1ccsc1)c1[nH]c2ccc(Br)cc2c1-c1ccccc1 : active
Cc1ccc(O)cc1Nc1nc(SCCN2CCOCC2)nc2c1cnn2CC(Cl)c1ccc(Br)cc1 (stereo not given) : inactive

What outcome does the record of this test show for CC[C@]12C=CCN3CC[C@]4(C(=C(C(=O)OC)C1)Nc1cc(OC)c([C@@H]5[C@H]6O[C@H]6[C@@]6(CC)CC(C(=O)OC)=C7Nc8cc(O)ccc8[C@@]78CCN5[C@@H]68)cc14)[C@@H]32 ?
inactive

Please let me know the test result on file for FC(F)(F)c1cc2c(Cl)ncnc2n1CCN1CCCCC1 .
inactive

---

- System: SK-OV-3 ovarian
- experimental-protocol: NCI-60 one-dose screen, 48 h (100 = growth as untreated, 0 = no growth, -100 = all killed)
- experimental-parameters: 10 µM unless noted
The panel holds about 83,000 compounds, 20% with a hit somewhere; the sample as a whole holds those more often.
observable: growth (%)
Quick reminder: number only, in %, skip the unit.

Answered examples (2):
CC1CCc2c(sc3nc(SCC(=O)c4cccc([N+](=O)[O-])c4)n(-c4ccccc4)c(=O)c23)C1 (stereo not drawn) : 98.8
O=C1CCC(N2C(=O)c3cccc(NCCOCCOCCOCCC(=O)NCCCC(=O)NC(c4ccc5c(c4)OCO5)c4cc(Cl)c5cccnc5c4O)c3C2=O)C(=O)C1 (stereo not drawn) : 51.1

Record request: growth value, item O=C(CSc1nnc(-c2ccc(-c3nc4ccc(Cl)cc4[nH]3)cc2)o1)Nc1ccc(Br)cc1
73

Any idea what its growth is? The compound is CCOc1ccc2[nH]c(=O)c(C(c3nnnn3CC3CCCO3)N3CCN(Cc4ccccc4)CC3)cc2c1 (stereo not drawn)
79.3

Which growth value belongs to CCN1C(=O)N(CC)C2NNC(Sc3c(C(=O)O)c4ccccc4n(CCC(C)C)c3=O)=NC21 (stereo not drawn) ?
35.8

Fill in: growth of Cn1cc(-c2cc(N)n3nc(-c4c[nH]c5ccc(F)cc45)cc3n2)c2cccnc21 is ___
-56

GET /values?readout=growth&item= O=C1/C(=C/C=C/c2ccco2)SC(=S)N1CC(=S)C1C=CS(=O)(=O)C1 (stereo not drawn)
105

Which growth value is on record for Cc1ccc(/C=C/C(=O)c2ccc(S(=O)(=O)NCCNc3nc(N(C)C)nc(N4CCOCC4)n3)cc2)cc1 ?
90.5

Values compiled from PubChem BioAssay (NCI).
